Origin of the recorded values: patent US9073857B2

- assay-details: Particle size by laser particle size distribution analyzer
- Assay type: physicochemical
- measurement-setup: Effect Example 2; microcrystals of the Examples
property-label: particle size D[4,3] (micron)

Here is how some compounds turned out for particle size D[4,3].
> print(dat)
                                   compound        property.label  numeric.readout
1  O=C1CCc2ccc(OCCCCN3CCN(c4cccc(Cl)c4Cl)CC3)cc2N1 [Example 4, aripiprazole]  particle size D[4,3]            10.99
2  O=C1CCc2ccc(OCCCCN3CCN(c4cccc(Cl)c4Cl)CC3)cc2N1 [Example 23, aripiprazole]  particle size D[4,3]            13.42
3  O=C1CCc2ccc(OCCCCN3CCN(c4cccc(Cl)c4Cl)CC3)cc2N1 [Contrastive Example 1, aripiprazole]  particle size D[4,3]            32.85
4  O=C1CCc2ccc(OCCCCN3CCN(c4cccc(Cl)c4Cl)CC3)cc2N1 [Example 24, aripiprazole]  particle size D[4,3]             4.73
5  O=C1CCc2ccc(OCCCCN3CCN(c4cccc(Cl)c4Cl)CC3)cc2N1 [Example 2, aripiprazole]  particle size D[4,3]            14.17

[a] O=C1CCc2ccc(OCCCCN3CCN(c4cccc(Cl)c4Cl)CC3)cc2N1 [Example 5, aripiprazole]
[b] O=C1CCc2ccc(OCCCCN3CCN(c4cccc(Cl)c4Cl)CC3)cc2N1 [Example 3, aripiprazole]
Between the two listed entries a and b , which has its particle size D[4,3] at the higher number? Record your answer as the label of the chosen record.
b
(b: 15.64 micron, a: 6.79 micron)
